experiment: Microsomal stability assay, human liver microsomes; format: in vitro ADME; conditions: pH 7.4, 1 μM compound, 0.5 mg/mL protein, 37° C., read-out: HLM +/− NADPH: Clint (μL/min/mg protein)
endpoint label: microsomal CLint at 1 μM

Query CC(C)(c1ccc(OCCCl)c(Cl)c1)c1ccc(OCc2ocnc2S(C)(=O)=O)c(C#N)c1 yields microsomal CLint at 1 μM of < 12 µL/min/mg

Query CC(C)(c1ccc(OCc2coc(NS(C)(=O)=O)n2)cc1)c1cc(Cl)c(OCCCl)c(Cl)c1 yields microsomal CLint at 1 μM of < 12 µL/min/mg

Query CC(C)(c1ccc(OCc2ncc(NS(C)(=O)=O)s2)cc1)c1cc(Cl)c(OCCCl)c(C#N)c1 yields microsomal CLint at 1 μM of 12 to 48 µL/min/mg

Query CC(=O)Nc1nc(COc2ccc(C(C)(C)c3cc(Cl)c(OCCCl)c(C#N)c3)cc2)co1 yields microsomal CLint at 1 μM of ≥ 48 µL/min/mg

Query CC(C)(c1cnc(NCc2ocnc2S(C)(=O)=O)nc1)c1cc(Cl)c(OCCCl)c(Cl)c1 yields microsomal CLint at 1 μM of < 12 µL/min/mg

Query CC(C)(c1ccc(CN2C(=O)N(S(C)(=O)=O)C(C)(C)C2=O)cc1)c1cc(Cl)c(OCCCl)c(Cl)c1 yields microsomal CLint at 1 μM of < 12 µL/min/mg

Query CC(C)(c1ccc(NC(=O)c2ocnc2S(C)(=O)=O)cc1)c1cc(Cl)c(OCCCl)c(Cl)c1 yields microsomal CLint at 1 μM of < 12 µL/min/mg

Query CC(C)(c1ccc(OCc2cnc(S(C)(=O)=O)s2)cc1)c1cc(Cl)c(OCCCl)c(C#N)c1 yields microsomal CLint at 1 μM of < 12 µL/min/mg

Query CC(C)(c1ccc(OCc2ocnc2S(C)(=O)=O)cc1)c1cc(Cl)c(NCCCl)c(Cl)c1 yields microsomal CLint at 1 μM of 12 to 48 µL/min/mg

Query CC(C)(c1ccc(OCc2n[nH]cc2NS(=O)(=O)C(F)(F)F)cc1)c1cc(Cl)c(OCCCl)c(Cl)c1 yields microsomal CLint at 1 μM of 12 to 48 µL/min/mg

Query CC(C)(c1ccc(OCc2[nH]ncc2NS(C)(=O)=O)cc1)c1cc(Cl)c(OCCCl)c(Cl)c1 yields microsomal CLint at 1 μM of 12 to 48 µL/min/mg

Query CC(C)(c1ccc(OCc2ocnc2C#N)cc1)c1cc(Cl)c(OCCCl)c(Cl)c1 yields microsomal CLint at 1 μM of 12 to 48 µL/min/mg

Query CN1C(=O)N(Cc2ccc(C(C)(C)c3cc(Cl)c(OCCCl)c(Cl)c3)cc2)C(=O)C1(C)C yields microsomal CLint at 1 μM of ≥ 48 µL/min/mg

Query CC(C)(c1ccc(OCc2ccnc(S(C)(=O)=O)n2)cc1)c1cc(Cl)c(OCCCl)c(C#N)c1 yields microsomal CLint at 1 μM of < 12 µL/min/mg

Query Cc1cc(C(C)(C)c2ccc(OCc3ocnc3S(C)(=O)=O)cc2)cc(C#N)c1OCCCl yields microsomal CLint at 1 μM of 12 to 48 µL/min/mg

Query CC(C)(c1ccc(OCc2ccnnc2NS(C)(=O)=O)cc1)c1cc(Cl)c(OCCCl)c(C#N)c1 yields microsomal CLint at 1 μM of 12 to 48 µL/min/mg

Query CC(C)(c1ccc(OCc2ccnc(N3CCCS3(=O)=O)n2)cc1)c1cc(Cl)c(OCCCl)c(C#N)c1 yields microsomal CLint at 1 μM of < 12 µL/min/mg

Query CC(C)(c1ccc(OCc2nc(C#N)co2)cc1)c1cc(Cl)c(OCCCl)c(C#N)c1 yields microsomal CLint at 1 μM of < 12 µL/min/mg

Query Cn1c(COc2ccc(C(C)(C)c3cc(Cl)c(OCCCl)c(C#N)c3)cc2)ccc1S(C)(=O)=O yields microsomal CLint at 1 μM of ≥ 48 µL/min/mg

Query CC(C)(c1ccc(OCc2cccc(NS(C)(=O)=O)n2)cc1)c1cc(Cl)c(OCCCl)c(C#N)c1 yields microsomal CLint at 1 μM of < 12 µL/min/mg

Query CC(C)(c1ccc(OCc2ccnc(C#N)n2)cc1)c1cc(Cl)c(OCCCl)c(C#N)c1 yields microsomal CLint at 1 μM of < 12 µL/min/mg

Query CC(C)S(=O)(=O)c1ncc(COc2ccc(C(C)(C)c3cc(Cl)c(OCCCl)c(C#N)c3)cc2)o1 yields microsomal CLint at 1 μM of 12 to 48 µL/min/mg

Query CC(C)(c1ccc(CNc2ccnc(NS(C)(=O)=O)n2)cc1)c1cc(Cl)c(OCCCl)c(C#N)c1 yields microsomal CLint at 1 μM of ≥ 48 µL/min/mg

Query CC(O)(c1ccc(OCc2ocnc2S(C)(=O)=O)cc1)c1cc(Cl)c(OCCCl)c(C#N)c1 (stereo not drawn) yields microsomal CLint at 1 μM of 12 to 48 µL/min/mg

Query C[C@H](Oc1ccc(C(C)(C)c2cc(Cl)c(OCCCl)c(C#N)c2)cc1)c1ccnc(NS(C)(=O)=O)n1 (single isomer, unassigned) yields microsomal CLint at 1 μM of < 12 µL/min/mg

Query CC(C)(c1ccc(OCc2ccnc(N3CCCCS3(=O)=O)n2)cc1)c1cc(Cl)c(OCCCl)c(C#N)c1 yields microsomal CLint at 1 μM of < 12 µL/min/mg

Query CC(C)(c1ccc(OCc2coc(N)n2)cc1)c1cc(Cl)c(OCCCl)c(C#N)c1 yields microsomal CLint at 1 μM of 12 to 48 µL/min/mg

Query CC(=O)Nc1cc(COc2ccc(C(C)(C)c3cc(Cl)c(OCCCCl)c(Cl)c3)cc2)on1 yields microsomal CLint at 1 μM of 12 to 48 µL/min/mg

Query CC(C)(c1ccc(OCc2cnc(CN)o2)cc1)c1cc(Cl)c(OCCCl)c(C#N)c1 yields microsomal CLint at 1 μM of 12 to 48 µL/min/mg

Query CC(C)(c1ccc(OCc2nc(S(C)(=O)=O)cs2)cc1)c1cc(Cl)c(OCCCl)c(C#N)c1 yields microsomal CLint at 1 μM of 12 to 48 µL/min/mg
